Target: purified CaMKIIα (Homo sapiens)
Assay: In vitro kinase reactions with purified CaMKIIα (GluA1 S831, T286, GluN2B S1303 phosphorylation)
Assay type: biochemical
Parameters: made in house; host or cells: baculovirus/Sf9 (CaMKIIα); BL21 bacteria (CaM)
Settings: 1 mM ATP, 30° C., AS283 0.41-10 μM; Cheng-Prusoff with Km ATP 33.3 μM; read-out: apparent Ki, autophosphorylation of T286 (pT286)
MEASURED_PARAMETER: Ki (µM)
Enter your answer as a number in µM; do not include the unit.

Query: What does the data say about its Ki? Entry: NCCNc1cccc(-c2ccnc3[nH]c4ccccc4c23)c1
Result: 0.071

Reference source: patent US20260263429A1
